- SYSTEM_NAME: T1, ICP8Δ60 (HSV-1 ICP8 lacking the 60-aa C-terminal tail) (herpes simplex virus type 1 (HSV-1), …, UniProt P17470 1-1136, in the MST only: labelled on amines with the red dye NT-647-NHS (RED-NHS Monolith kit); unlabelled in the thermal shift assays)
- T1 construct: the tail is printed as residues 1136-1196; source: Sf9 insect cells infected with recombinant baculovirus (pFastBac1-ICP8Δ60), purified (SP-Sepharose cation exchange)
- T1 sequence: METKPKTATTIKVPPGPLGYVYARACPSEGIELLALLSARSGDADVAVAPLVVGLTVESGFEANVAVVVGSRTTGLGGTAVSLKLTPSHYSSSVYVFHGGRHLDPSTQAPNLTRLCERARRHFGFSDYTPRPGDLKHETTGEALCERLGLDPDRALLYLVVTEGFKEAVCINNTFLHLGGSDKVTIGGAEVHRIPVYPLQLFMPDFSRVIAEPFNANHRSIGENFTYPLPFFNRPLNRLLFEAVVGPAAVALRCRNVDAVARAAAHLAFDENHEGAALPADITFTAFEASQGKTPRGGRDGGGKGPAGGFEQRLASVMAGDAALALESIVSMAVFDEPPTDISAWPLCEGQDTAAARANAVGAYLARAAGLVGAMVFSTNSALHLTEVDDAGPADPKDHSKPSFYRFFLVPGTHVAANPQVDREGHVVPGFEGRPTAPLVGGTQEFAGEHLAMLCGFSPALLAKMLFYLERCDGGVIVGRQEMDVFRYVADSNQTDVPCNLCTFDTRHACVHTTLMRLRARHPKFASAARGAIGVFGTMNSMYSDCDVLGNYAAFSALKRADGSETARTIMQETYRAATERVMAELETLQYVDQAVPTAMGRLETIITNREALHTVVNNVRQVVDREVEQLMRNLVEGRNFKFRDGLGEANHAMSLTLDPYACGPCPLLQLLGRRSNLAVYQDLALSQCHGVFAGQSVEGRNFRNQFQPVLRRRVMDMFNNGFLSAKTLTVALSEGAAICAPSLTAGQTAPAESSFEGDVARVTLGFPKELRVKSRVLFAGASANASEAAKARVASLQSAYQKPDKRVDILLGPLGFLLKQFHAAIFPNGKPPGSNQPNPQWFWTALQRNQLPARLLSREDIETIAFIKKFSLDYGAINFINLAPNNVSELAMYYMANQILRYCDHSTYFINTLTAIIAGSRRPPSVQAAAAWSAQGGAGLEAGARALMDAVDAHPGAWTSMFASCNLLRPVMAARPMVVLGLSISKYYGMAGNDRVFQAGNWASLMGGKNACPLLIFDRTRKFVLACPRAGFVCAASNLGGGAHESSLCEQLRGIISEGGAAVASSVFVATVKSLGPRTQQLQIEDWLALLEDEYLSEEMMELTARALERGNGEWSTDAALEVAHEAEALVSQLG
- ASSAY_NAME: label-free thermal shift (nanoDSF, Tycho NT.6); as a1 (1:10 M ratio), with 1.2 M excess of a 19-mer ssDNA added to the preformed binary complex; ΔTi counted against apo ICP8Δ60 without ssDNA (ssDNA alone gives 1.1 °C)
- CONDITION_NOTES: both partners purified
OBSERVED_PROPERTY: ΔTi of ICP8Δ60 (Ti complex - Ti apo), + ssDNA

The examples below pair each entry with its known result.
ICP8-CTD FNF→AAA (domain or fragment, ICP8 (UL29) of HSV-1, C-terminal domain, residues 1036-1196, with the triple alanine substitution of F1142, N1143 and F1144; the text has 1142-1144; also called FNF→AAA CTD; source: E. coli BL21 (pET28a-His-ICP8-CTD mutant), purified (Talon cobalt beads, Superose 12 gel filtration)) AASNLGGGAHESSLCEQLRGIISEGGAAVASSVFVATVKSLGPRTQQLQIEDWLALLEDEYLSEEMMELTARALERGNGEWSTDAALEVAHEAEALVSQLGNAGEVAAAGDFGCEDDNATPFGGPGAPGPAFAGRKRAFHGDDPFGEGPPDKKGDLTLDML :: 1.9 °C
ICP8-CTD D1087A (domain or fragment, ICP8 (UL29) of HSV-1, C-terminal domain, residues 1036-1196, with D1087A; source: E. coli BL21 (pET28a-His-ICP8-CTD mutant), purified (Talon cobalt beads, Superose 12 gel filtration)) AASNLGGGAHESSLCEQLRGIISEGGAAVASSVFVATVKSLGPRTQQLQIEAWLALLEDEYLSEEMMELTARALERGNGEWSTDAALEVAHEAEALVSQLGNAGEVFNFGDFGCEDDNATPFGGPGAPGPAFAGRKRAFHGDDPFGEGPPDKKGDLTLDML :: 2.4 °C
ICP8-CTD WT (His-tagged entire C-terminal domain of ICP8, residues 1036-1196) (domain or fragment, ICP8 (UL29) of HSV-1, entire C-terminal domain with the helical bundle and the intact 60-aa disordered tail, residues 1036-1196; The methods give no limits for the pET28a construct and give aa 1049-1135 for the Flag-tagged CTD of the cell experiments; also called WT ICP8-CTD; WT CTD; source: E. coli BL21 (pET28a-His-ICP8-CTD, codon optimised), purified (Talon cobalt beads, Superose 12 gel …)) AASNLGGGAHESSLCEQLRGIISEGGAAVASSVFVATVKSLGPRTQQLQIEDWLALLEDEYLSEEMMELTARALERGNGEWSTDAALEVAHEAEALVSQLGNAGEVFNFGDFGCEDDNATPFGGPGAPGPAFAGRKRAFHGDDPFGEGPPDKKGDLTLDML :: 2.9 °C

API: the following record is the query input.
Look up ΔTi of ICP8Δ60 (Ti complex - Ti apo), + ssDNA of ICP8-CTD Δ60 (domain or fragment, ICP8 (UL29) of HSV-1, C-terminal domain (begins at 1036) with the last 60 residues deleted; source: E. coli BL21 (pET28a-His-ICP8-CTDΔ60), purified (Talon cobalt beads, Superose 12 gel filtration)) AASNLGGGAHESSLCEQLRGIISEGGAAVASSVFVATVKSLGPRTQQLQIEDWLALLEDEYLSEEMMELTARALERGNGEWSTDAALEVAHEAEALVSQLG and report it.
2 °C
